Where these numbers come from: patent US4683301A

Test: Urinary recovery after intramuscular administration to mice
Type: in vivo
Settings: mouse, urine, im, 20 mg/kg, 20 mg/kg i.m., 3-6 hours, read-out: Urinary recovery, Percentage of Dose Recovered
Value type: dose excreted at 6 h (%)
Provide only the numeric value, understood in %.

response.value for C[C@@H](O)[C@H]1C(=O)N2C(C(=O)[O-])=C(SCC[S+]3CCCC3)C[C@H]12 (field: dose excreted at 6 h) = 2.1

* * *

Assay: Toxicity after intracranial administration to mice
Settings: mouse, in vivo
Value type: LD50

Value of measured LD50 for the entry C[C@@H](O)[C@H]1C(=O)N2C(C(=O)[O-])=C(SCC[S+]3CCCC3)C[C@H]12 : > 40 mg/kg

* * *

Assay: in vivo
Conditions: mouse
Value type: NOAEL

Looking up C[C@@H](O)[C@H]1C(=O)N2C(C(=O)[O-])=C(SCC[S+]3CCCC3)C[C@H]12 [Example 1] , I see its NOAEL listed as ~5 mg/kg

* * *

Experiment: Urinary recovery after intramuscular administration to mice
Format: in vivo
Conditions: mouse, urine, im, 20 mg/kg, 20 mg/kg i.m., 0-3 hours, read-out: Urinary recovery, Percentage of Dose Recovered
From the text: | a single test; 4 mice per compound.
Value type: dose excreted at 3 h (%)
// note: answer is a bare numeric in %

Lab note: C[C@@H](O)[C@H]1C(=O)N2C(C(=O)[O-])=C(SCC[S+]3CCCC3)C[C@H]12 [Example 1] gave dose excreted at 3 h of 15.6

* * *

Test: Urinary recovery after intramuscular administration to mice
Assay type: in vivo
Details: mouse, urine, im, 20 mg/kg, 20 mg/kg i.m., 6-24 hours, read-out: Urinary recovery, Percentage of Dose Recovered
Value type: dose excreted at 24 h

Per the records, this molecule ( C[C@@H](O)[C@H]1C(=O)N2C(C(=O)[O-])=C(SCC[S+]3CCCC3)C[C@H]12 [Example 1] ) has dose excreted at 24 h equal to < 0.2%
